- targetEntity: T1, PD-1.His (UniProt Q15116 25-170, limits assumed)
- T1 construct: not shown: His tag
- T1 sequence (Q15116 25-170 limits assumed): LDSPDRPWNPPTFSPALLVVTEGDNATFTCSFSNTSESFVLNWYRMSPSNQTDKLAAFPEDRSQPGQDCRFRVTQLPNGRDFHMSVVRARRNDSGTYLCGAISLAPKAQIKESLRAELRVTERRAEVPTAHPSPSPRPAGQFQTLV
- protocol: SPR, antibody captured on protein A, PD-1.His in flow
reportedEndpoint: pKd
Scale for pKd: -log10 of concentration given in mol/L; no unit attached.

INSERT INTO results (binder, reportedendpoint, value) VALUES
  ('NB182-z4 (Fc fusion, format not restated; not shown: IgG4 constant region of vector pCDNA3.4-IgG4) heavy: EVQLVESGGGLVQPGGSLRLSCSASGDTSFISAAGWYRQAPGKERELVSAITNTGITYYPDSVKGRFTISRDNSKNTVYLQMNNLRAEDTAVYYCNAGAPPPGGLGYDESDYWGQGTQVTVSS', 'pKd', 7.82),
  ('NB182-z1 (Fc fusion, format not restated; not shown: IgG4 constant region of vector pCDNA3.4-IgG4) heavy: EVQLVESGGGLVQPGGSLRLSCSASGDTSFISAAGWYRQAPGKERELVSAITNTGITYYPDSVKGRFTISRDNSKNTVYLQMNSLRAEDTAVYYCNAGAPPPGGLGYDESDYWGQGTQVTVSS', 'pKd', 8.08);

Q. Sample NB182-z3 (Fc fusion, format not restated; not shown: IgG4 constant region of vector pCDNA3.4-IgG4) heavy: EVQLVESGGGLVQPGGSLRLSCSASGDTSFISAAGWYRQAPGKERELVSAITNTGITYYPDSVKGRFTISRDNSKNTLYLQMNNLRAEDTAVYYCNAGAPPPGGLGYDESDYWGQGTQVTVSS — what was its pKd?
A. 7.93

Q. Follow-up item: NB194-z2 (Fc fusion, format not restated; not shown: IgG4 constant region of vector pCDNA3.4-IgG4) heavy: EVQLVESGGGLVQPGGSLRLSCAASGRPFSIYDMGWFRQAPDKERESVAVISLSRGNTYYADSVKGRFTISRDSAKNTVYLQMNSLRAEDTAVYSCGVDRRQYGLGIPPLADHWGQGTQVTVSS
A. 9.00
